EXPERIMENTAL_TARGET: PI3Kα H1047R (T47D cells) (Homo sapiens, UniProt P42336, H1047R)
Construct: endogenous in cells; host or cells: T47D cells
Sequence (P42336 whole entry H1047R): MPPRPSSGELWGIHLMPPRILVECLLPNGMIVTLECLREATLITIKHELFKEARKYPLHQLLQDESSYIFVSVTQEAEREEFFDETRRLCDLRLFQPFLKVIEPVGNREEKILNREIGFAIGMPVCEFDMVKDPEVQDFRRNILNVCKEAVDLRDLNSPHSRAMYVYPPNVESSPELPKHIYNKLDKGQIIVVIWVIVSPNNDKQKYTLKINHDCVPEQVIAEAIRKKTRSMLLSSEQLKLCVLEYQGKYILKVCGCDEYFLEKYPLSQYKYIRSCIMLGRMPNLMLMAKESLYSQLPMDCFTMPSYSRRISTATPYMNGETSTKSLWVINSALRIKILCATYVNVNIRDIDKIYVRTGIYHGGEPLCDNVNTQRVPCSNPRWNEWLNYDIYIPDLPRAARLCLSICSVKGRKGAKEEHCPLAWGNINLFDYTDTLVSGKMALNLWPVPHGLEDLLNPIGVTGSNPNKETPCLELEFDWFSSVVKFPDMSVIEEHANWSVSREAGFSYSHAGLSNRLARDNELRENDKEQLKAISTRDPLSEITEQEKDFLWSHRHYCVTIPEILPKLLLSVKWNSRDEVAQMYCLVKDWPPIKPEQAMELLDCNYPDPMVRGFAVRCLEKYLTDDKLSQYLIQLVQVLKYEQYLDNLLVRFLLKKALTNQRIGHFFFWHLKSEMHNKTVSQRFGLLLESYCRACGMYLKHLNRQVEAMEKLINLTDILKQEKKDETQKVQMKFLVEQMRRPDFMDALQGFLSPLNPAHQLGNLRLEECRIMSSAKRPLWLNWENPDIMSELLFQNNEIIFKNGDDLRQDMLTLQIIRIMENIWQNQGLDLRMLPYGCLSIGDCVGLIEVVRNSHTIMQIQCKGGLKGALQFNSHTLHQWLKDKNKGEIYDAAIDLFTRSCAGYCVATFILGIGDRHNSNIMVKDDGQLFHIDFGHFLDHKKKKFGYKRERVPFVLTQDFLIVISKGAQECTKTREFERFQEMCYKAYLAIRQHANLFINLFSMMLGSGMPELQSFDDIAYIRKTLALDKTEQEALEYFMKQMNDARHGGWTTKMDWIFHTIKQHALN
Sequence (P27986 whole entry partner): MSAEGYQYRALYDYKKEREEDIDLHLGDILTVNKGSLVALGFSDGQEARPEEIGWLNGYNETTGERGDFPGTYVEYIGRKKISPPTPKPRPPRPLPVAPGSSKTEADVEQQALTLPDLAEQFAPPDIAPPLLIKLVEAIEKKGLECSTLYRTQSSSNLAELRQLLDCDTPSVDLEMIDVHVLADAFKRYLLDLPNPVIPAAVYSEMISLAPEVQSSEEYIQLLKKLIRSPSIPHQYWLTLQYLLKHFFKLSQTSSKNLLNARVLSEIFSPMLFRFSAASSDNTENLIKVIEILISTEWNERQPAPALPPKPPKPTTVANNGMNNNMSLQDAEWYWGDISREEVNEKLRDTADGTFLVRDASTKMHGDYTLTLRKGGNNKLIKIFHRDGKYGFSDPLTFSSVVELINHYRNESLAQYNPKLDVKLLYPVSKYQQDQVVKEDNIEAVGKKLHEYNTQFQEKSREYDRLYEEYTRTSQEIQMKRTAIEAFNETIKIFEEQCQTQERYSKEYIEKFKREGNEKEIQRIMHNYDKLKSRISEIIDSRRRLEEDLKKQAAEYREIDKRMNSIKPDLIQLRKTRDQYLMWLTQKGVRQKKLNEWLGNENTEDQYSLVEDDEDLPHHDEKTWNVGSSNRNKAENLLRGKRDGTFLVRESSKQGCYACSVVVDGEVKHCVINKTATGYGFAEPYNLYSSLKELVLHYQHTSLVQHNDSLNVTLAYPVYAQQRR
MEASUREMENT_PROTOCOL: PI3Kα cellular assay: pAKT HTRF in T47D cells after EGF stimulation
Assay type: cell-based
ASSAY_CONTEXT: selectivity T47D (H1047R) over SKBR3 (WT), pAKT HTRF
EXPERIMENTAL_ENDPOINT: T47D pAKT S473 HTRF IC50 (H1047R): T47D (H1047R) selectivity over SKBR3 (WT)

Would you please look over these solved cases?
Cc1cc([C@@H](C)Nc2ccccc2C(=O)O)c2nc(N3CCOC[C@H]3C)cc(=O)n2c1 | C (C denotes ≤5-fold)
Cc1cc(C(C)Nc2ccccc2C(=O)O)c2nc(N3CCN(C(=O)CCN)CC3)cc(=O)n2c1 (stereo not drawn) | C (C denotes ≤5-fold)
CCc1ccn2c(=O)c(C)c(-c3cccc(F)c3)nc2c1[C@H](C)Nc1ccccc1C(=O)O | A (A denotes >20-fold)
Cc1cc(C(C)Nc2ccccc2)c2nc(N3Cc4ccccc4C3)c(C)c(=O)n2c1 (stereo not drawn) | C (C denotes ≤5-fold)
Cc1cc([C@@H](C)Nc2ccccc2C(N)=O)c2nc(N3Cc4ccccc4C3)cc(=O)n2c1 (single isomer, unassigned) | A (A denotes >20-fold)
Cc1cc([C@@H](C)Nc2ccccc2C(=O)O)c2nc(-c3ccc4nc(CO)[nH]c4c3)cc(=O)n2c1 | C (C denotes ≤5-fold)

Bench note: what T47D pAKT S473 HTRF IC50 (H1047R): T47D (H1047R) selectivity over SKBR3 (WT) did CC(=O)N[C@H]1CCCC(c2cc(=O)n3cc(C)cc(C(C)Nc4ccccc4C(=O)O)c3n2)C1 (stereo partly drawn) show?
C (C denotes ≤5-fold)

# query: T47D pAKT S473 HTRF IC50 (H1047R): T47D (H1047R) selectivity over SKBR3 (WT) of entry Cc1cc([C@H](C)Nc2ccccc2C#N)c2nc(N3CCOCC3)cc(=O)n2c1
C (C denotes ≤5-fold)

What measured T47D pAKT S473 HTRF IC50 (H1047R): T47D (H1047R) selectivity over SKBR3 (WT) goes with Cc1cc([C@H](C)Nc2cccc3c2CCC(=O)N3)c2nc(N3CCOCC3)cc(=O)n2c1 ?
C (C denotes ≤5-fold)

Requested field: T47D pAKT S473 HTRF IC50 (H1047R): T47D (H1047R) selectivity over SKBR3 (WT). Item: Cc1cc(C(C)Nc2ccccc2C(=O)O)c2nc(-c3ccc4c(c3)c(N)nn4C)cc(=O)n2c1 (stereo not drawn) [Compound 347]
A (A denotes >20-fold)

Look up T47D pAKT S473 HTRF IC50 (H1047R): T47D (H1047R) selectivity over SKBR3 (WT) for this compound: Cc1cc([C@H](C)Nc2ccccc2S(N)(=O)=O)c2nc(-c3cnc4c(c3)c(C)cn4C)c(C)c(=O)n2c1
C (C denotes ≤5-fold)

Which T47D pAKT S473 HTRF IC50 (H1047R): T47D (H1047R) selectivity over SKBR3 (WT) is reported for this compound? Cc1cc([C@H](C)Nc2ccccc2C(=O)O)c2nc(-c3ccc(CC4CCN(C(=O)C5CC5)CC4)c(F)c3)c(C)c(=O)n2c1 [Compound 1315]
C (C denotes ≤5-fold)

Item under review: Cc1cc([C@H](C)Nc2ccccc2C(=O)O)c2nc(-c3cc[nH]c(=O)c3)cc(=O)n2c1 . Reported T47D pAKT S473 HTRF IC50 (H1047R): T47D (H1047R) selectivity over SKBR3 (WT)?
C (C denotes ≤5-fold)

Entry Cc1cc([C@H](C)Nc2ccccc2C(=O)O)c2nc(N3C[C@@H](C)O[C@@H](C)C3)cc(=O)n2c1 has what T47D pAKT S473 HTRF IC50 (H1047R): T47D (H1047R) selectivity over SKBR3 (WT)?
C (C denotes ≤5-fold)
